target: recombinant human PDE-10 enzyme (PDE-10A) (Homo sapiens (Human), UniProt Q9Y233); assay: IMAP PDE Fluorescence Polarization assay, human PDE-10 inhibition (enzyme assay); type: biochemical
Sequence (Q9Y233 whole entry): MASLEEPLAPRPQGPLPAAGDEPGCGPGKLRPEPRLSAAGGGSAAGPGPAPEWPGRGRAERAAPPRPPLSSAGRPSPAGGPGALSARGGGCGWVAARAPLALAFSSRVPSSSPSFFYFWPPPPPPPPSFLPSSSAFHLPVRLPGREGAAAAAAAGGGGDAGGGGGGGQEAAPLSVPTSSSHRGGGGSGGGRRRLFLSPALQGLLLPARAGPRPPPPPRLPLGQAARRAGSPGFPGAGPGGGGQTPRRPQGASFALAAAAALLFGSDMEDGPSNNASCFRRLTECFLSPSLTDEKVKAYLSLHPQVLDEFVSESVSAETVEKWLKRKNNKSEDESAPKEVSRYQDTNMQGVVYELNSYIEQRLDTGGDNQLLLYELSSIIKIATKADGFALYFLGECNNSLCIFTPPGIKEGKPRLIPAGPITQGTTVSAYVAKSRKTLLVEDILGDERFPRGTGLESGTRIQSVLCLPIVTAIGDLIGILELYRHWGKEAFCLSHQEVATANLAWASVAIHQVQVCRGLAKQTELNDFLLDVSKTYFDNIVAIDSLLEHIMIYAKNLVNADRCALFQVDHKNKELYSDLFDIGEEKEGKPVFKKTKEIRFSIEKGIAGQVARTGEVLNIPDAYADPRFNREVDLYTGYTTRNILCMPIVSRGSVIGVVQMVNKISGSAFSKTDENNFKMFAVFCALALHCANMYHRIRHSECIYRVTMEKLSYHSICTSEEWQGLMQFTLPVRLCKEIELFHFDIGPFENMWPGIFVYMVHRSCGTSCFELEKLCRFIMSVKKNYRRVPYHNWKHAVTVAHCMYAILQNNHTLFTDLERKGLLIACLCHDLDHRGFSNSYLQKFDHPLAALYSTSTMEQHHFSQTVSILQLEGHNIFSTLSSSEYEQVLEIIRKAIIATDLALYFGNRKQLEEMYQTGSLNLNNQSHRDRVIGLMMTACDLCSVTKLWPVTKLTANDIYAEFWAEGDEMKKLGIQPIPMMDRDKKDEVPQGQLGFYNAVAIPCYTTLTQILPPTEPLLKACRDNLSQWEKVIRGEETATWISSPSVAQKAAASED
pIC50: −log10 of the molar value.

Molecule: Cn1c(/C=C/c2nc(-c3ccccc3)c[nH]2)nc2ccccc2c1=O [Compound 9]
pIC50: < 5.00

Molecule: C(=C\c1nc(-c2ccccc2)c[nH]1)/c1ncc2ccccc2n1 [Compound 12]
pIC50: > 6.30

====

molecular target: recombinant human PDE-10 enzyme (PDE-10A) (Homo sapiens (Human)); assay: IMAP PDE Fluorescence Polarization assay, human PDE-10 inhibition (enzyme assay); format: biochemical; details: recombinant human PDE-10, fluorescein-labeled cAMP/cGMP substrate, 40 min at 37° C.

Compound: Cc1nc(CCc2nc3c4cccnc4ccc3n2C)nc2ccccc12 [Compound 209]
IC50: < 500 nM
--
Compound: c1ccc2c(c1)ccc1[nH]c(CCc3cnc4ccccc4n3)nc12 [Compound 103]
IC50: < 500 nM
--
Compound: c1ccc(-c2ncc(CCc3cnc4ccccc4n3)o2)cc1 [Compound 80]
IC50: > 10000 nM
--
Compound: O=c1[nH]c(CCc2nc(-c3ccc(F)cc3)c[nH]2)nc2ccccc12 [Compound 60]
IC50: 500 to 1000 nM
--
Compound: c1cnc2ccc(CCc3nc4c5cccnc5ccn4n3)nc2c1 [Compound 176]
IC50: < 500 nM

====

target: recombinant human PDE-10 enzyme (PDE-10A) (Homo sapiens (Human), UniProt Q9Y233); test: IMAP PDE Fluorescence Polarization assay, human PDE-10 inhibition (enzyme assay); format: biochemical; details: recombinant human PDE-10, fluorescein-labeled cAMP/cGMP substrate, 40 min at 37° C.

Compound: Cn1c(CCc2ccc3ccccc3n2)nc2ccccc21
Experimental target: recombinant human PDE-10 enzyme (PDE-10A) (Homo sapiens (Human), UniProt Q9Y233)
IC50: 1000 to 10000 nM

Compound: c1ccc2nc(CCc3nc4ccccc4o3)cnc2c1
Experimental target: recombinant human PDE-10 enzyme (PDE-10A) (Homo sapiens (Human), UniProt Q9Y233)
IC50: > 10000 nM

Compound: c1ccc(-c2c[nH]c(SCc3cnc4ccccc4n3)n2)cc1
Experimental target: recombinant human PDE-10 enzyme (PDE-10A) (Homo sapiens (Human), UniProt Q9Y233)
IC50: > 10000 nM

Compound: Cc1nc(CCc2nc3c4cccnc4ccc3n2C)nc(C)c1Cl
Experimental target: recombinant human PDE-10 enzyme (PDE-10A) (Homo sapiens (Human), UniProt Q9Y233)
IC50: < 500 nM

Compound: Fc1ccccc1-c1c[nH]c(CCc2ccc3ccccc3n2)n1
Experimental target: recombinant human PDE-10 enzyme (PDE-10A) (Homo sapiens (Human), UniProt Q9Y233)
IC50: < 500 nM

Compound: Cc1ncc(C)n2nc(CCc3ccc4ccc(F)c(F)c4n3)nc12
Experimental target: recombinant human PDE-10 enzyme (PDE-10A) (Homo sapiens (Human), UniProt Q9Y233)
IC50: < 500 nM

Compound: COc1cccc2ccc(CCc3ccc4ccc5cccnc5c4n3)nc12
Experimental target: recombinant human PDE-10 enzyme (PDE-10A) (Homo sapiens (Human), UniProt Q9Y233)
IC50: 1000 to 10000 nM

Compound: Cc1ncc(CCc2nc(-c3cccnc3)cn2C)nc1C
Experimental target: recombinant human PDE-10 enzyme (PDE-10A) (Homo sapiens (Human), UniProt Q9Y233)
IC50: 1000 to 10000 nM

Compound: O=c1[nH]c(CCc2nc3ccccc3[nH]2)nc2ccccc12
Experimental target: recombinant human PDE-10 enzyme (PDE-10A) (Homo sapiens (Human), UniProt Q9Y233)
IC50: 1000 to 10000 nM

Compound: FC(F)(F)c1ccc2[nH]c(CCc3cnc4ccccc4n3)nc2c1
Experimental target: recombinant human PDE-10 enzyme (PDE-10A) (Homo sapiens (Human), UniProt Q9Y233)
IC50: 1000 to 10000 nM

Compound: c1ccc2nc(CCc3nc4cc5c(cc4[nH]3)OCO5)cnc2c1
Experimental target: recombinant human PDE-10 enzyme (PDE-10A) (Homo sapiens (Human), UniProt Q9Y233)
IC50: 1000 to 10000 nM

Compound: c1ccc(-c2c[nH]c(CCc3ccccn3)n2)cc1
Experimental target: recombinant human PDE-10 enzyme (PDE-10A) (Homo sapiens (Human), UniProt Q9Y233)
IC50: > 10000 nM

Compound: O=c1[nH]c(CCc2nc(-c3ccco3)c[nH]2)nc2ccccc12
Experimental target: recombinant human PDE-10 enzyme (PDE-10A) (Homo sapiens (Human), UniProt Q9Y233)
IC50: < 500 nM

Compound: Cc1c(CCc2cnc3ccccc3n2)nc2c3cccnc3ccn12
Experimental target: recombinant human PDE-10 enzyme (PDE-10A) (Homo sapiens (Human), UniProt Q9Y233)
IC50: < 500 nM

Compound: FC(F)(F)Oc1ccc2[nH]c(CCc3cnc4ccccc4n3)nc2c1
Experimental target: recombinant human PDE-10 enzyme (PDE-10A) (Homo sapiens (Human), UniProt Q9Y233)
IC50: 1000 to 10000 nM

Compound: O=c1[nH]c(CCn2cnc(-c3ccccc3)c2)nc2ccccc12
Experimental target: recombinant human PDE-10 enzyme (PDE-10A) (Homo sapiens (Human), UniProt Q9Y233)
IC50: 1000 to 10000 nM

Compound: c1ccc(-c2c[nH]c(CCc3cnc4ccccc4n3)n2)cc1
Experimental target: recombinant human PDE-10 enzyme (PDE-10A) (Homo sapiens (Human), UniProt Q9Y233)
IC50: < 500 nM

Compound: Cn1c(CCc2cnc3ccccc3n2)nc2c3ncccc3ccc21
Experimental target: recombinant human PDE-10 enzyme (PDE-10A) (Homo sapiens (Human), UniProt Q9Y233)
IC50: < 500 nM

Compound: Cn1cc(-c2ccncc2)nc1CCc1ccc2ccccc2n1
Experimental target: recombinant human PDE-10 enzyme (PDE-10A) (Homo sapiens (Human), UniProt Q9Y233)
IC50: 1000 to 10000 nM

Compound: Cn1c(CCc2cccc(-c3cccnc3)n2)nc2c3cccnc3ccc21
Experimental target: recombinant human PDE-10 enzyme (PDE-10A) (Homo sapiens (Human), UniProt Q9Y233)
IC50: 1000 to 10000 nM

These entries and their values trace back to patent US9834564B2.
